Quick list: IC50 per entry.
System under test: Human LDHA (Homo sapiens (Human))
Assay comment: human LDHA primary biochemical assay
Experimental parameters: biochemical LDHA inhibitory activity, assay of Example 1; activity level classes defined in nM

Query: I'd like to know its IC50. The compound in question is CC(C)(C)c1ccc(-c2cccc(-c3nn(-c4nc(C(=O)O)cs4)c(CC4CC4)c3Cc3ccc(S(N)(=O)=O)c(F)c3)c2)cc1 [Compound 168]
Response: 100 to 1000 nM

Query: Then Cc1ccc(C#Cc2cccc(-c3nn(-c4nc(C(=O)O)cs4)c(C(C4CC4)C4CC4)c3Cc3ccc([S+](N)(=O)[O-])c(F)c3)c2)s1 [Compound 126] ?
Response: 1000 to 57000 nM

Query: Another: NS(=O)(=O)c1ccc(Cc2c(-c3cccc(C#Cc4ccc(C5CC5)s4)c3)nn(-c3nc(C(=O)O)cs3)c2CC2CC2)cc1F [Compound 117]
Response: 100 to 1000 nM

Query: // query: Cc1cc(-c2cc(-c3nn(-c4nc(C(=O)O)cs4)c(CC4CC4)c3Cc3ccc(S(N)(=O)=O)c(F)c3)ccc2F)ccc1F [Compound 195]
Response: < 100 nM

Query: Quick one: Cc1cc(C)c(C#Cc2cccc(-c3nn(-c4nc(C(=O)O)cs4)c(CC4CC4)c3Cc3ccc(S(N)(=O)=O)c(F)c3)c2)s1 [Compound 125]
Response: < 100 nM

Query: // next record NS(=O)(=O)c1ccc(Cc2c(-c3cccc(-c4ccc(C(F)(F)C(F)(F)F)cc4)c3)nn(-c3nc(C(=O)O)cs3)c2CC2CC2)cc1F [Compound 224]
Response: 100 to 1000 nM

====

System under test: Human LDHA (Homo sapiens (Human))
Assay comment: human LDHA primary biochemical assay
Experimental parameters: biochemical LDHA inhibitory activity, assay of Example 1; activity level classes defined in nM
Method: This example describes a human LDHA primary biochemical assay employed in the characterization of a compound of formula (I) in an embodiment of the invention. Test compounds were placed in a Greiner Bio-One (Monroe, N.C.) 1536-well black solid bottom assay plate. 200 millimolar (mM) Tris HCl, pH 7.4, 100 micromolar (μM) EDTA and 0.01% TWEEN-20™, final concentration, was used as the assay buffer. […] The inhibition of LDHA activity was measured by fluorescence emission.
Attribute measured: IC50

>  <Compound>
CC1CCCC=C1c1cc(-c2nn(-c3nc(C(=O)O)cs3)c(CC3CC3)c2Cc2ccc(S(N)(=O)=O)c(F)c2)ccc1F (stereo not shown) [Compound 103]

>  <IC50>
< 100 nM

$$$$
>  <Compound>
Cc1cc(C)cc(-c2cc(-c3nn(-c4nc(C(=O)O)cs4)c(CC4CC4)c3Cc3ccc(S(N)(=O)=O)c(F)c3)ccc2F)c1 [Compound 151]

>  <IC50>
100 to 1000 nM

$$$$
>  <Compound>
Cc1ccsc1C#Cc1cccc(-c2nn(-c3nc(C(=O)O)cs3)c(CC3CC3)c2Cc2ccc(S(N)(=O)=O)c(F)c2)c1 [Compound 120]

>  <IC50>
< 100 nM

$$$$
>  <Compound>
N#Cc1ccc(-c2cccc(-c3nn(-c4nc(C(=O)O)cs4)c(CC4CC4)c3Cc3ccc(S(N)(=O)=O)c(F)c3)c2)cc1 [Compound 176]

>  <IC50>
< 100 nM

$$$$
>  <Compound>
CC(C)c1ccc(-c2cccc(-c3nn(-c4nc(C(=O)O)cs4)c(CCC4CC4)c3Cc3ccc(S(N)(=O)=O)c(F)c3)c2)cc1 [Compound 206]

>  <IC50>
100 to 1000 nM

$$$$

Query: For the compound CC(C)c1ccc(-c2cccc(-c3nn(-c4nc(C(=O)O)cs4)c(CC4CC4)c3Cc3ccc(S(N)(=O)=O)c(F)c3)n2)cc1 [Compound 211] , what IC50 is on record?
Response: 100 to 1000 nM

Query: Field entry: Cc1ccc(C(=O)Cc2cccc(-c3nn(-c4nc(C(=O)O)cs4)c(CC4CC4)c3Cc3ccc(S(N)(=O)=O)c(F)c3)c2)s1 [Compound 242]
Response: < 100 nM

Query: Subsequent entry: Cc1ccc(C#Cc2cc(-c3nn(-c4nc(C(=O)O)cs4)c(CCC4CC4)c3Cc3ccc(S(N)(=O)=O)c(F)c3)ccc2F)s1 [Compound 113]
Response: < 100 nM

Query: Consider next the compound NS(=O)(=O)c1ccc(Cc2c(-c3cccc(-c4ccc(CC(F)(F)F)cc4)c3)nn(-c3nc(C(=O)O)cs3)c2CC2CC2)cc1F [Compound 187] in the same way.
Response: 100 to 1000 nM

Query: Likewise for NS(=O)(=O)c1ccc(Cc2c(-c3cccc(-c4ccc5c(c4)CCC5)c3)nn(-c3nc(C(=O)O)cs3)c2CC2CC2)cc1F [Compound 220] ?
Response: < 100 nM

Query: Try this compound too: Cc1ccc(-c2cc(-c3nn(-c4nc(C(=O)O)cs4)c(CC4CC4)c3Cc3ccc(S(N)(=O)=O)c(F)c3)ccc2F)cc1F [Compound 137]
Response: < 100 nM

Query: Thanks! And CN(C)c1ccc(-c2cccc(-c3nn(-c4nc(C(=O)O)cs4)c(CC4CC4)c3Cc3ccc(S(N)(=O)=O)c(F)c3)c2)cc1 [Compound 178] ?
Response: < 100 nM

Query: Likewise for Cc1ccc(-c2cccc(-c3nn(-c4nc(C(=O)O)cs4)c(CC4CC4)c3Cc3ccc(S(N)(=O)=O)c(F)c3)c2)cc1F [Compound 167] ?
Response: < 100 nM

====

Tested on: MiaPaCa2 cells
Assay comment: cell-based HT lactate assay by colorimetric/fluorometric detection (cellular inhibition of lactate production)
Experimental parameters: Homo sapiens, MIA PaCa-2, assay of Example 6
Entries and their measured IC50 follow.

# count of solved cases: 5
>  <Compound>
Cc1cnc(C#Cc2cc(-c3nn(-c4nc(C(=O)O)cs4)c(CC4CC4)c3Cc3ccc(S(N)(=O)=O)c(F)c3)ccc2F)s1

>  <Recorded result>
< 1000 nM

$$$$
>  <Compound>
COC1CC=C(c2cc(-c3nn(-c4nc(C(=O)O)cs4)c(CC4CC4)c3Cc3ccc(S(N)(=O)=O)c(F)c3)ccc2F)CC1 (stereo not shown)

>  <Recorded result>
< 1000 nM

$$$$
>  <Compound>
CC1CCCC=C1c1cc(-c2nn(-c3nc(C(=O)O)cs3)c(CC3CC3)c2Cc2ccc(S(N)(=O)=O)c(F)c2)ccc1F (stereo not shown)

>  <Recorded result>
< 1000 nM

$$$$
>  <Compound>
CC(C)c1ccc(-c2cc(-c3nn(-c4nc(C(=O)O)cs4)c(CC4CC4)c3Cc3ccc(S(N)(=O)=O)c(F)c3)ccc2F)cc1

>  <Recorded result>
< 1000 nM

$$$$
>  <Compound>
Cc1cnc(C#Cc2cccc(-c3nn(-c4nc(C(=O)O)cs4)c(CC4CC4)c3Cc3ccc(S(N)(=O)=O)c(F)c3)c2)o1

>  <Recorded result>
< 1000 nM

$$$$

Query: Quick one: IC50 for NS(=O)(=O)c1ccc(Cc2c(-c3ccc(F)c(C4=Cc5ccccc5C4)c3)nn(-c3nc(C(=O)O)cs3)c2CC2CC2)cc1F ?
Response: < 1000 nM

Query: Also NS(=O)(=O)c1ccc(Cc2c(-c3ccc(F)c(-c4cccc(Cl)c4)c3)nn(-c3nc(C(=O)O)cs3)c2CC2CC2)cc1F , if possible.
Response: < 1000 nM

Query: Also Cc1ccc(-c2cc(-c3nn(-c4nc(C(=O)O)cs4)c(CC4CC4)c3Cc3ccc(S(N)(=O)=O)c(F)c3)ccc2F)cc1F , if possible.
Response: < 1000 nM

Query: Same again, this time with COc1ccc(-c2cccc(-c3nn(-c4nc(C(=O)O)cs4)c(CC4CC4)c3Cc3ccc(S(N)(=O)=O)c(F)c3)c2)cc1C
Response: < 1000 nM

Query: // next record NS(=O)(=O)c1ccc(Cc2c(-c3cccc(-c4cccc(Cl)c4)c3)nn(-c3nc(C(=O)O)cs3)c2CC2CC2)cc1F
Response: > 57000 nM

Query: Check NS(=O)(=O)c1ccc(Cc2c(-c3cccc(-c4ccc5c(c4)CCCC5)c3)nn(-c3nc(C(=O)O)cs3)c2CC2CC2)cc1F too.
Response: > 57000 nM

Query: // query: Cc1ccc(C#Cc2cccc(-c3nn(-c4nc(C(=O)NC#N)cs4)c(CC4CC4)c3Cc3ccc(S(N)(=O)=O)c(F)c3)c2)s1
Response: > 57000 nM

Query: Another compound to look at: CC(C)(C)c1ccc(-c2cccc(-c3nn(-c4nc(C(=O)O)cs4)c(CC4CC4)c3Cc3ccc(S(N)(=O)=O)c(F)c3)c2)cc1
Response: < 1000 nM

====

System under test: Human LDHA (Homo sapiens (Human))
Assay comment: human LDHA primary biochemical assay
Experimental parameters: biochemical LDHA inhibitory activity, assay of Example 1; activity level classes defined in nM
Attribute measured: IC50

Solved cases below.
>  <Compound>
NS(=O)(=O)c1ccc(Cc2c(-c3cccc(-c4ccc(O)c(F)c4)c3)nn(-c3nc(C(=O)O)cs3)c2CC2CC2)cc1F

>  <Recorded result>
< 100 nM

$$$$
>  <Compound>
NS(=O)(=O)c1ccc(Cc2c(-c3cccc(-c4ccc(C(F)(F)F)cc4)c3)nn(-c3nc(C(=O)O)cs3)c2CC2CC2)cc1F

>  <Recorded result>
< 100 nM

$$$$
>  <Compound>
Cc1ccc(C#Cc2csc(-c3nn(-c4nc(C(=O)O)cs4)c(CC4CC4)c3Cc3ccc(S(N)(=O)=O)c(F)c3)c2)s1

>  <Recorded result>
100 to 1000 nM

$$$$

Query: Look up IC50: Cc1ccc(-c2cccc(-c3nn(-c4nc(C(=O)O)cs4)c(CC4CC4)c3Cc3ccc(S(N)(=O)=O)c(F)c3)c2)cn1
Response: < 100 nM

Query: Next compound: Cc1cnc(C#Cc2cccc(-c3nn(-c4nc(C(=O)O)cs4)c(CCC4CC4)c3Cc3ccc(S(N)(=O)=O)c(F)c3)c2)s1
Response: < 100 nM

Query: Same read-out for CCc1cc(-c2cc(-c3nn(-c4nc(C(=O)O)cs4)c(CC4CC4)c3Cc3ccc(S(N)(=O)=O)c(F)c3)ccc2F)ccc1OC [Compound 223] ?
Response: 100 to 1000 nM
